Origin of the recorded values: ChEMBL document CHEMBL4819017

Assay: Half life in BALB/c mouse at 10 mg/kg, po measured for 8 hrs
Format: ADME, organism-based
Details: in vivo
Property Label: half-life (h)

[[record]]
mol = "COc1ncc2cc1NS(=O)(=O)c1cccc(c1)C(=O)NCc1cncc(c1)-c1ncnc3ccc-2cc13"
unit_abbrev = "h"
result = 5.68


I: COc1ncc2cc1NS(=O)(=O)c1cccc(c1)C(=O)NCc1cncc(c1)-c1cnc3ccc-2cn13
II: COc1ncc2cc1NS(=O)(=O)c1cc(c(F)cc1F)C(=O)NCc1cncc(c1)-c1ccnc3ccc-2cc13
Request: Which of the two items, I and II , has the greater recorded half-life? Your answer should be the label attached to the chosen record.
Response: I
(I: 5.22 h, II: 2.78 h)

----------
Assay: Inhibition of PI3K/mTOR in human U2OS cells assessed as inhibition of AKT1 phosphorylation at Ser473 residue by C-ELISA
Format: cell-based
Property Label: EC50 (nM)

Please review the entries below; each comes with its answer.
[[record]]
mol = "COc1ncc(-c2ccc3nccc(-c4ccnnc4)c3c2)cc1NS(=O)(=O)c1ccc(F)cc1F"
unit_abbrev = "nM"
result = 0.6

[[record]]
mol = "COc1ncc2cc1NS(=O)(=O)c1cc(c(F)cc1F)C(=O)NCc1cncc(c1)-c1ccnc3ccc-2cc13"
unit_abbrev = "nM"
result = 10.7


P: COc1ncc2cc1NS(=O)(=O)c1cccc(c1)C(=O)NCc1cncc(c1)-c1cnc3ccc-2nn13
Q: COc1ncc2cc1NS(=O)(=O)c1cccc(c1)C(=O)NCc1cncc(c1)-c1ncnc3ccc-2cc13
R: COc1ncc2cc1NS(=O)(=O)c1cccc(c1)C(=O)NCc1cncc(c1)-c1cnc3ccc-2cn13
S: COc1ncc2cc1NS(=O)(=O)c1cccc(c1)C(=O)NCc1cccc(c1)-c1ncnc3ccc-2cc13
Request: Task for the reader: rank each entry by its EC50, from the minimum upward. The labels, placed in the requested order, form the answer.
Response: R, Q, S, P
(R: 0.17 nM, Q: 20.6 nM, S: 47.9 nM, P: 99.4 nM)

----------
Test: Metabolic stability in mouse liver microsomes assessed as parent compound remaining in presence of NADPH regenerating system at 0.5 uM measured after 15 mins by LC-MS/MS analysis
Format: ADME, Microsome
Conditions: read-out: Stabilty
Property Label: remaining at 0.25 h, 0.5 µM (%)

[[record]]
mol = "COc1ncc2cc1NS(=O)(=O)c1cccc(c1)C(=O)NCc1cncc(c1)-c1cnc3ccc-2cn13"
unit_abbrev = "%"
result = 97

[[record]]
mol = "COc1ncc2cc1NS(=O)(=O)c1cccc(c1)C(=O)NCc1cccc(c1)-c1ncnc3ccc-2cc13"
unit_abbrev = "%"
result = 74

[[record]]
mol = "COc1ncc2cc1NS(=O)(=O)c1cc(c(F)cc1F)C(=O)NCc1cncc(c1)-c1ccnc3ccc-2cc13"
unit_abbrev = "%"
result = 88

[[record]]
mol = "COc1ncc2cc1NS(=O)(=O)c1cccc(c1)C(=O)NCc1cncc(c1)-c1ncnc3ccc-2cc13"
unit_abbrev = "%"
result = 76


----------
Target: PI3-kinase p110-alpha/p85-alpha (Homo sapiens, UniProt P42336, H1047R)
Sequence (P42336 whole entry H1047R, looked up): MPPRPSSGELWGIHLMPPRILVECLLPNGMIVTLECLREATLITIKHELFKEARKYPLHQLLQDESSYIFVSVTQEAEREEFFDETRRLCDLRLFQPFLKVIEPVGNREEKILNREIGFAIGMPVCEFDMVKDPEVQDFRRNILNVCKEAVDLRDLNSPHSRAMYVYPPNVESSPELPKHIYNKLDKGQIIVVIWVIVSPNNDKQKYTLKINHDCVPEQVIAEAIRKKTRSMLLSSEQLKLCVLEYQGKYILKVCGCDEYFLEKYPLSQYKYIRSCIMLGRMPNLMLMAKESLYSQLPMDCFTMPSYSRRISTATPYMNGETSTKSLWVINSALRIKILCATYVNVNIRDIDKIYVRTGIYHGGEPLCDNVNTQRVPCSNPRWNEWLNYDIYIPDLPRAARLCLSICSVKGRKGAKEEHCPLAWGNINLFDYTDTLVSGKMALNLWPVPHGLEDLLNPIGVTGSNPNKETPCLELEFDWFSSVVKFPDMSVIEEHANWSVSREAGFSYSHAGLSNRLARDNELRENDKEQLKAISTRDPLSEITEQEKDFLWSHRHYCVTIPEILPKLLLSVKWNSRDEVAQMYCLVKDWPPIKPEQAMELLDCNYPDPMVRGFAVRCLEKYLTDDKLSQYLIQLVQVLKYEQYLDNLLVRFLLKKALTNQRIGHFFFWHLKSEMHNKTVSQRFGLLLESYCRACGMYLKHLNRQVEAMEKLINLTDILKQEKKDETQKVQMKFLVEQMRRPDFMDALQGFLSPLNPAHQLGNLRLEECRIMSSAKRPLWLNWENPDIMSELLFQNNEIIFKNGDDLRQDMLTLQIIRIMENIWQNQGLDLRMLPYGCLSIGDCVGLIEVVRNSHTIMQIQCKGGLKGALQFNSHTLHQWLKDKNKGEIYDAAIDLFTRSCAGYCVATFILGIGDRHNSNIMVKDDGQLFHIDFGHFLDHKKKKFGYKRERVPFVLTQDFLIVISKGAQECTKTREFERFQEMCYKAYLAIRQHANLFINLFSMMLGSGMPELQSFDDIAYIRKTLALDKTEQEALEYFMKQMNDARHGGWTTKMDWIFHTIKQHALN
Assay: Inhibition of p110alpha H1047R mutant/p85alpha (unknown origin) using PIP2:3PS lipid kinase as substrate in presence of ATP measured by ADP-Glo lipid kinase assay
Property Label: Ki (pM)
# output: bare number, implied unit pM

Request: I'm curious: which Ki was measured for `COc1ncc2cc1NS(=O)(=O)c1cccc(c1)C(=O)NCc1cncc(c1)-c1cnc3ccc-2cn13` tested on PI3-kinase p110-alpha/p85-alpha (Homo sapiens, UniProt P42336, H1047R)?
Response: 100
